Tested on: AMPK
Test: Measurement of AMPK activity by Western blot in C2C12 cells
Type: cell-based
Parameters: key: fold increase in threonine-172 phosphorylation
Conditions: 10 μM for 50 minutes, no superscript: Western blot of serine-79 and threonine-172 phosphorylation
The compounds listed here are annotated with their AMPK activity (degree of phosphorylation of serine-79 and threonine-172).

Solved entries (count: 5):
CC(C)c1nc(NCCCCc2ccccc2)c2ccccc2n1	3.9
COc1ccc(CNc2nc(C3CC3)nc3ccccc23)c(OC)c1	3.8
CCCc1nc(NCc2cc(OC)ccc2OC)c2ccccc2n1	0.5
COc1cc(OC)c(CNc2ncnc3ccccc23)c(OC)c1	2.9
COc1ccc(CNc2nc(-c3ccccc3)nc3ccccc23)c(OC)c1	2.1

Inquiry: Answer with reported AMPK activity (degree of phosphorylation of serine-79 and threonine-172) of c1ccc2c(NCc3ccc4c(c3)OCO4)nc(N3CCCC3)nc2c1
Reply text: 2.0

Inquiry: Answer with reported AMPK activity (degree of phosphorylation of serine-79 and threonine-172) of COc1ccc(OC)c(CNc2nc(N3CCOCC3)nc3ccccc23)c1
Reply text: 0.8

Inquiry: Answer with reported AMPK activity (degree of phosphorylation of serine-79 and threonine-172) of Clc1ccc(CCNc2nc(-c3ccccc3)nc3ccccc23)cc1Cl
Reply text: 2.5

Inquiry: Answer with reported AMPK activity (degree of phosphorylation of serine-79 and threonine-172) of COc1cccc(CNc2nc(C(C)C)nc3ccccc23)c1OC
Reply text: 1.9

---

System: AMPK
Assay: Measurement of AMPK activity by Western blot in C2C12 cells
Type: cell-based
Parameters: key: fold increase in threonine-172 phosphorylation
Details: 10 μM for 50 minutes, no superscript: Western blot of serine-79 and threonine-172 phosphorylation
The compounds listed here are annotated with their AMPK activity (degree of phosphorylation of serine-79 and threonine-172).
Number, no unit, nothing else.

COc1ccc(CNc2nc(N3CCCCC3)nc3ccccc23)cc1	1.4
COc1cc(CNc2nc(-c3cccs3)nc3ccccc23)cc(OC)c1OC	1.4
COc1ccc(OC)c(CNc2ncnc3ccccc23)c1	1.7
COc1cccc(CNc2nc(Cc3ccccc3)nc3ccccc23)c1OC	4.2
COc1ccc(CNc2nc(N3CCCC3)nc3ccccc23)cc1OC	0.6

Inquiry: Please indicate recorded AMPK activity (degree of phosphorylation of serine-79 and threonine-172) of Brc1ccccc1CNc1nc(-c2ccccc2)nc2ccccc12 measured with AMPK.
Reply text: 1.3

Inquiry: Please indicate recorded AMPK activity (degree of phosphorylation of serine-79 and threonine-172) of CCCc1nc(NCc2ccc3c(c2)OCO3)c2ccccc2n1 measured with AMPK.
Reply text: 7.3

Inquiry: Please indicate recorded AMPK activity (degree of phosphorylation of serine-79 and threonine-172) of c1ccc2c(NCc3ccc4c(c3)OCO4)nc(N3CCOCC3)nc2c1 measured with AMPK.
Reply text: 1.3

Inquiry: Please indicate recorded AMPK activity (degree of phosphorylation of serine-79 and threonine-172) of COc1cccc(CNc2nc(C)nc3ccccc23)c1 measured with AMPK.
Reply text: 1.6

---

The compounds listed here are annotated with their AMPK activity (degree of phosphorylation of serine-79 and threonine-172).
Test system: AMPK
Test: Measurement of AMPK activity by Western blot in C2C12 cells
Format: cell-based
Design: key: fold increase in threonine-172 phosphorylation
Details: 10 μM for 50 minutes, no superscript: Western blot of serine-79 and threonine-172 phosphorylation
Number, no unit, nothing else.

COc1ccc(CNc2nc(N3CCOCC3)nc3ccccc23)cc1OC	0.9
COc1cc(CNc2nc(C3CC3)nc3ccccc23)cc(OC)c1OC	2.2
COc1ccc(OC)c(CNc2nc(N3CCCCC3)nc3ccccc23)c1	1.0
COc1ccc(CNc2nc(C3CC3)nc3ccccc23)cc1	2.0
COc1cc(CNc2nc(C(C)C)nc3ccccc23)cc(OC)c1	1.2

Inquiry: Answer with reported AMPK activity (degree of phosphorylation of serine-79 and threonine-172) of COc1ccc(CNc2nc(-c3ccccc3)nc3ccccc23)cc1OC
Reply text: 2.0

Inquiry: Answer with reported AMPK activity (degree of phosphorylation of serine-79 and threonine-172) of c1ccc(CCNc2nc(C3CCCCC3)nc3ccccc23)cc1
Reply text: 3.9

Inquiry: Answer with reported AMPK activity (degree of phosphorylation of serine-79 and threonine-172) of COc1ccc(CNc2nc(Cc3ccccc3)nc3ccccc23)c(OC)c1
Reply text: 3.4
